# ASSAY DETAILS: BSK_LPS_SRB: Viability Assessment in the BioMAP Diversity Plus: LPS Assay (AID 2283079);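 note: total protein by sulforhodamine B absorbance as a cytotoxicity measure; measured one day after compound addition; fitted in both directions against DMSO so loss or gain of signal counts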
# RECORDED CONDITIONS: primary human HUVEC with PBMC
Activity calls are given as the source filed them. Rule for the calls: active = hit-call score of the fitted dose curve at least 0.9, where 1 is the maximum; inactive = score below 0.9.
Classes used: active, inactive

[[record]]
compound = "CN(C)CCC(c1ccc(Cl)cc1)c1ccccn1 (configuration not stated)"
answer_label = "inactive"

[[record]]
compound = "Cc1cc(-n2nc3ccc(Cl)cc3n2)c(O)c(C(C)(C)C)c1"
answer_label = "inactive"

[[record]]
compound = "CN(C)Cc1cc(C(C)(C)C)c(O)c(C(C)(C)C)c1"
answer_label = "inactive"

[[record]]
compound = "CC(C)CC(=O)CC(C)CC(C)C (configuration not stated)"
answer_label = "active"

[[record]]
compound = "C1CN(CCOCCN2CCOCC2)CCO1"
answer_label = "inactive"

[[record]]
compound = "O=C(C(=O)c1ccccc1)c1ccccc1"
answer_label = "inactive"

[[record]]
compound = "CCC(C)=NO"
answer_label = "inactive"

[[record]]
compound = "CC(C)C1OCCN1CCOC(=O)NCCCCCCNC(=O)OCCN1CCOC1C(C)C (configuration not stated)"
answer_label = "inactive"

[[record]]
compound = "CC[N+](CC)(CC(=O)Nc1c(C)cccc1C)Cc1ccccc1"
answer_label = "inactive"

[[record]]
compound = "COc1cc(CNC(=O)CCCC/C=C/C(C)C)ccc1O"
answer_label = "inactive"

[[record]]
compound = "COc1ccc(C(=O)c2ccccc2O)c(O)c1"
answer_label = "inactive"

[[record]]
compound = "CC[N+](CC)(CC(=O)Nc1c(C)cccc1C)Cc1ccccc1 (tested in a mixture with another compound)"
answer_label = "inactive"


---

# ASSAY DETAILS: ATG_PPRE_CIS: Attagene CIS-FACTORIAL HepG2 Assay for human Peroxisome Proliferator-activated Response Element (PPRE) (AID 2282958)
# RECORDED CONDITIONS: HepG2 PPRE cis-element reporter, Attagene transcription factor profiling; actives raise or lower the signal
The source made the active and inactive calls. Rule for the calls: active = hit-call score of the fitted dose curve at least 0.9, where 1 is the maximum; inactive = score below 0.9.
Classes used: class 1 for active, class 0 for inactive

[[record]]
molecule = "OCCOCCOCCOCCOCCO"
answer_label = "class 0"

[[record]]
molecule = "O=[N+]([O-])c1ccccc1C(F)(F)F"
answer_label = "class 0"

[[record]]
molecule = "CCO[Si](CCCN)(OCC)OCC"
answer_label = "class 0"

[[record]]
molecule = "CC(C)CC(=O)O"
answer_label = "class 0"

[[record]]
molecule = "CCCc1c(OCCCCc2nn[nH]n2)ccc(C(C)=O)c1O"
answer_label = "class 1"

[[record]]
molecule = "CC(C)(Oc1ccc(Cl)cc1)C(=O)O"
answer_label = "class 0"

[[record]]
molecule = "Cc1cc(O)cc(C)c1Cl"
answer_label = "class 1"

[[record]]
molecule = "CCCOCCC"
answer_label = "class 0"

[[record]]
molecule = "CCCCNC(N)=O"
answer_label = "class 0"

[[record]]
molecule = "COC(OC)C(C)c1ccccc1 (configuration not stated)"
answer_label = "class 0"

[[record]]
molecule = "COc1ccccc1OCC(O)CO (configuration not stated)"
answer_label = "class 0"

[[record]]
molecule = "Oc1ccc(Cl)cc1C1CCCC1"
answer_label = "class 0"

[[record]]
molecule = "O=C(CC(C(=O)OC1CCCCC1)S(=O)(=O)O)OC1CCCCC1 (configuration not stated)"
answer_label = "class 0"

[[record]]
molecule = "C=C1CC[C@H]2C[C@@H]1C2(C)C"
answer_label = "class 0"

[[record]]
molecule = "O=C(OCc1ccccc1)c1ccccc1"
answer_label = "class 0"

[[record]]
molecule = "Oc1ccc(Oc2ccccc2)cc1"
answer_label = "class 1"

[[record]]
molecule = "NC(N)=Nc1nc(CSCCC(N)=NS(N)(=O)=O)cs1"
answer_label = "class 0"

[[record]]
molecule = "CC(C)n1c(/C=C/[C@@H](O)C[C@@H](O)CC(=O)O)c(-c2ccc(F)cc2)c2ccccc21"
answer_label = "class 1"

[[record]]
molecule = "OCCc1ccccn1"
answer_label = "class 0"

[[record]]
molecule = "NC(=O)c1ccc([N+](=O)[O-])cc1Cl"
answer_label = "class 0"

[[record]]
molecule = "CCCCCCC1CCC(=O)O1 (configuration not stated)"
answer_label = "class 0"

[[record]]
molecule = "COCCCN"
answer_label = "class 0"

[[record]]
molecule = "CC1(C)S[C@@H]2[C@H](NC(=O)[C@H](N)c3ccccc3)C(=O)N2[C@H]1C(=O)O"
answer_label = "class 0"

[[record]]
molecule = "CCOc1ccc2c(c1)C(C)CC(C)(C)N2 (configuration not stated)"
answer_label = "class 0"

[[record]]
molecule = "O=C(C1CCCCC1)N1CC(=O)N2CCc3ccccc3C2C1 (configuration not stated)"
answer_label = "class 0"

[[record]]
molecule = "CCCCCCCCCCCCCCCCCC[N+](C)(C)C"
answer_label = "class 1"

[[record]]
molecule = "O=C(O)c1cc(Cl)cc(Cl)c1O"
answer_label = "class 0"

[[record]]
molecule = "CC1=C(CC(=O)O)c2cc(F)ccc2/C1=C\\c1ccc(S(C)=O)cc1 (configuration not stated)"
answer_label = "class 0"

[[record]]
molecule = "CCCCCC1CCCC(=O)O1 (configuration not stated)"
answer_label = "class 0"

[[record]]
molecule = "C=C(C)C(=O)OCCCCCC"
answer_label = "class 0"

[[record]]
molecule = "Cc1ccnc(N)c1"
answer_label = "class 0"

[[record]]
molecule = "CO[Si](CCCNCCN)(OC)OC"
answer_label = "class 0"

[[record]]
molecule = "OCCN(CCO)c1cccc(Cl)c1"
answer_label = "class 0"

[[record]]
molecule = "CC(C)CC(=O)CC(C)CC(C)C (configuration not stated)"
answer_label = "class 0"

[[record]]
molecule = "CNC(=C[N+](=O)[O-])NCCSCc1csc(CN(C)C)n1"
answer_label = "class 0"

[[record]]
molecule = "CN(C)Cc1cc(C(C)(C)C)c(O)c(C(C)(C)C)c1"
answer_label = "class 0"

[[record]]
molecule = "Nc1nnc(-c2ccc([N+](=O)[O-])o2)o1"
answer_label = "class 0"

